Test: Apparent volume of distribution in Sprague-Dawley rat at 1 mg/kg, iv
Assay type: ADME, organism-based
Conditions: in vivo, read-out: Vz
endpointName: Vd

The recorded Vd for CC(=O)Nc1cc(Oc2ccc(NC(=O)Cc3ccccc3C(F)(F)F)cc2)ncn1 is 1.2 L/kg

---

Assay: Cytotoxicity against CHL cells assessed as inhibition of cell growth
Format: toxicity, cell-based, Cricetulus griseus
Conditions: chinese hamster
endpointName: GI50

GI50 measured on CC(=O)Nc1cc(Oc2ccc(NC(=O)Cc3ccccc3C(F)(F)F)cc2)ncn1 = > 10 µM

---

I'd be grateful if you could share measured GI50 for these entries.
Tested on: BaF3
Assay: Antiproliferative activity against mouse BaF3 cells transfected with FLT3 ITD mutant assessed as cell growth inhibition incubated for 72 hrs by CCK-8 assay
Assay type: functional
Number in nM, nothing else.

Lab note: measured GI50 of Cc1ccc(NC(=O)Nc2ccc(Oc3cc(N(C)CCO)ncn3)cc2)cc1C(F)(F)F was 58

Field GI50 (entry CC(=O)Nc1cc(Oc2ccc(NC(=O)Cc3c(Cl)cccc3Cl)cc2)ncn1 ) reads 63

Sure, the documented GI50 for CC(=O)Nc1cc(Oc2ccc(NC(=O)Cc3ccc(C(F)(F)F)cc3Cl)cc2)ncn1 is 158

For record Cc1ccc(NC(=O)Nc2ccc(Oc3cc(N(C)CCN(C)C)ncn3)cc2)cc1C(F)(F)F the listed GI50 is 3230

The reported GI50 of the compound CNCCN(C)c1cc(Oc2ccc(NC(=O)Nc3ccc(C)c(C(F)(F)F)c3)cc2)ncn1 was 8580
